Tested on: Huh-7
assay.explanation: sorafenib dose-response against HCC cell lines
settings: read-out: EC50 (concentration to achieve 50% cytotoxicity); FIG. 7B
pEC50: −log10 of the molar value.
readout: pEC50

>>> test_value("CNC(=O)c1cc(Oc2ccc(NC(=O)Nc3ccc(Cl)c(C(F)(F)F)c3)cc2)ccn1")
5.10

---

Tested on: SNU-387 cells
assay.explanation: sorafenib dose-response against HCC cell lines
settings: read-out: EC50 (concentration to achieve 50% cytotoxicity); FIG. 7B
readout: EC50

>>> test_value("CNC(=O)c1cc(Oc2ccc(NC(=O)Nc3ccc(Cl)c(C(F)(F)F)c3)cc2)ccn1 [sorafenib]")
"29.4 µM"
